tested on: Pseudomonas syringae pv. tomato; test: MIC and lethal concentration (LC) assay (Example 3); type: cell-based; conditions: >90% inhibition; 1-2 days at 25° C.; Table 2
No end group written: not given here.
ATTRIBUTE_MEASURED: MIC

Determine its reported MIC: KRRLIARILRLAIRALVKKR-NH2 [SP13-1]
1.0 µg/mL

Determine its reported MIC: KRRKLIKILKLIAKLIRKKR-NH2 [SP13-7]
10/>10 μg/ml

Determine its reported MIC: KRRLIARILRLAARALVKKR-NH2 [SP13]
5.0/5.0 μg/ml

Determine its reported MIC: KRRILIRILKLIIKLILKKR-NH2 [SP13-5]
2.5 µg/mL

Determine its reported MIC: KRRLILRILRLAIRILVKKR-NH2 [SP13-3]
10/10 μg/ml

Determine its reported MIC: KRRKLAFRLFRLFLKLVLKK-NH2 [SP13-14]
2.5 µg/mL

Determine its reported MIC: KRRLIFRILKLFFRFLVKKR-NH2 [SP13-4]
>10/>10 μg/ml

Determine its reported MIC: KRRLALFRLFRLALKLVLKK-NH2 [SP13-11]
2.5 µg/mL
